Listing: GI50 of selected compounds
System: 786-0 renal
Experiment: NCI tumour cell line growth inhibition, 48 h

In the examples that follow, each entry is paired with its recorded GI50.
{"columns": ["SMILES INPUT", "GI50"],
 "data": [
  ["CCCCOC(=O)/C=C\\C(=O)NC(N)=O", "20.1 µM"],
  ["[N-]=[N+]=NCCCn1c2c(c3ccc([N+](=O)[O-])cc3c1=O)C(=O)c1cc(I)ccc1-2", "3.17 µM"],
  ["CCNC(=O)Oc1ccc(/C(=C(\\C)c2ccc(Cl)cc2)c2ccc(OCCN(CC)CC)cc2)cc1", "1.76 µM"],
  ["Nc1c(C(=O)c2ccc(C#CCN3CCOCC3)cc2)cnn1-c1ccc(F)cc1", "> 25 µM"],
  ["C[C@]12CCCN1CC1=NNC(=O)c3cc(F)cc4[nH]c2c1c34", "26.2 µM"]
]}

Considering CS(=O)(=O)c1ccc2c(c1)C(=O)c1c-2n(CCCBr)c(=O)c2cc([N+](=O)[O-])ccc12 , its GI50 with 786-0 renal was recorded as 6.07 µM

Considering O=C1Nc2ccc(O)cc2/C1=C\c1ccncc1 , its GI50 with 786-0 renal was recorded as 18.5 µM

Considering O=C(/C=C\c1cc(Br)ccc1O)/C=C/c1cc(Br)ccc1O , its GI50 with 786-0 renal was recorded as 1.23 µM

Considering CCC(CC)c1cc(N[C@H]2CC[C@H](N)C2)n2nccc2n1 , its GI50 with 786-0 renal was recorded as 2.22 µM

Considering O=C(NCCCl)NCCN1c2nc3ccccc3cc2Sc2cc3ccccc3nc21 , its GI50 with 786-0 renal was recorded as 1.55 µM

###

System: TK-10 renal
Assay: NCI tumour cell line growth inhibition, 48 h
ENDPOINT: log10 TGI (log10 of the value in µM)
Log10 applied to TGI; unit prior to transform: µM.

{"columns": ["MOLECULE", "log10 TGI"],
 "data": [
  ["CCC1=C[C@@H]2CN(C1)Cc1c([nH]c3ccccc13)[C@@](C(=O)OC)(c1cc3c(cc1OC)N(C)[C@H]1[C@@](O)(C(=O)OC)[C@H](OC(C)=O)[C@]4(CC)C=CCN5CC[C@]31[C@@H]54)C2", 1.22]
]}

log10 TGI in this record for O=C1Nc2ccc(O)cc2/C1=C\c1ccncc1 : 1.60

###

Listing: TGI of selected molecules
Test system: NCI/ADR-RES ovarian
Test: NCI tumour cell line growth inhibition, 48 h
Note: unit µM is implicit; provide only the numeric part.

In the examples that follow, each entry is paired with its recorded TGI.
{"columns": ["SMILES INPUT", "TGI [µM]"],
 "data": [
  ["CNCCCn1c2c(c3ccc(Cl)cc3c1=O)C(=O)c1cc(OC)cnc1-2", 2.91],
  ["CCCCOC(=O)/C=C\\C(=O)NC(N)=O", 74.3]
]}

Considering CC(=O)Nc1c2sscc-2n(C)c1=O , its TGI with NCI/ADR-RES ovarian was recorded as 4.22

###

System: NCI-H226 lung
Test: NCI tumour cell line growth inhibition, 48 h; in the data active means GI50 below about 0.43 µM; inactive means the rest
Form entry, call: pick from label 1 for active, label 0 for inactive

Solved entries:
{"columns": ["MOLECULE", "ASSIGNED CLASS"],
 "data": [
  ["CCC(CC)c1cc(N[C@H]2CC[C@H](N)C2)n2nccc2n1", "label 0"],
  ["C[C@@H]1CC[C@H]2[C@@H](C)C(OC/C=C/COC3O[C@@H]4O[C@@]5(C)CC[C@H]6[C@H](C)CC[C@@H]([C@H]3C)[C@@]46OO5)O[C@@H]3O[C@@]4(C)CC[C@@H]1[C@]32OO4 (stereo partly specified)", "label 1"],
  ["Fc1ccc(Nc2ncc(-c3cc(F)c(Cl)cc3Cl)s2)cc1Cl", "label 0"],
  ["CS(=O)(=O)c1ccc2c(c1)C(=O)c1c-2n(CCCBr)c(=O)c2cc([N+](=O)[O-])ccc12", "label 0"],
  ["CN1CCN(Cc2ccc(NC(=O)c3cncc(C#Cc4c(N)ncc5c(F)cccc45)c3)cc2C(F)(F)F)CC1", "label 0"],
  ["COc1cc(-c2cc(-c3cccs3)c(C#N)c(N3CCOCC3)n2)cc(OC)c1OC", "label 0"],
  ["Cc1cc(I)cc(CNCCN2CCOCC2)c1O", "label 0"],
  ["COc1ccc(N=N/C(=N\\NC(=O)c2cc(Br)ccc2O)c2ccc(N(CCC#N)CCC#N)cc2OC)cc1", "label 0"]
]}

For Cc1cncc(-c2nc(NCCc3c[nH]c4ccccc34)c3ncn(C(C)C)c3n2)c1 , what call appears in the results of this test?
label 0

For CS(=O)(=O)O[C@H]1C(=O)N(c2cc3c4ccccc4ccc3c3ccccc23)[C@@H]1c1ccccn1 , what call appears in the results of this test?
label 0

For NC(=O)c1cc(I)ccc1NC(=O)/C=C/c1ccccc1Cl , what call appears in the results of this test?
label 0

###

System: SK-MEL-2 melanoma
Experiment: NCI tumour cell line growth inhibition, 48 h; in the data active = GI50 below about 0.43 µM; inactive = the rest
Form entry, call: pick from label 1 (active), label 0 (inactive)

Solved entries:
{"columns": ["MOLECULE", "TESTED SYSTEM", "ASSIGNED CLASS"],
 "data": [
  ["COC1=CC(c2ccc[nH]2)=N/C1=C\\c1[nH]c(C)c(C(=O)Oc2ccccc2)c1C", "SK-MEL-2 melanoma", "label 1"],
  ["Cc1cncc(-c2nc(NCCc3c[nH]c4ccccc34)c3ncn(C(C)C)c3n2)c1", "SK-MEL-2 melanoma", "label 0"],
  ["CCSc1nc(NC(C)c2ccccc2)c2cnn(CO)c2n1 (stereo not given)", "SK-MEL-2 melanoma", "label 0"],
  ["CC[O-].CC[O-].COc1ccc(C(=O)[CH-]C(C)=O)cc1OC.COc1ccc(C(=O)[CH-]C(C)=O)cc1OC.[Ti+4]", "SK-MEL-2 melanoma", "label 0"]
]}

For O=C(CN1CCN(CCN2C(=O)c3cccc4cccc(c34)C2=O)CC1)Nc1ccc2ncsc2c1 , what call appears in the results of this test?
label 0

###

Tested on: HOP-62 NSCLC
Assay: NCI tumour cell line growth inhibition, 48 h
ENDPOINT: GI50

In the examples that follow, each entry is paired with its recorded GI50.
{"columns": ["COMPOUND", "GI50"],
 "data": [
  ["O=C(CN1CCN(CCN2C(=O)c3cccc4cccc(c34)C2=O)CC1)Nc1ccc2ncsc2c1", "5.69 µM"],
  ["C=C1C(=O)O[C@@H]2C[C@@H]1CC[C@]1(C)O[C@H]1CC/C(C)=C/CC[C@@]2(C)O", "24.2 µM"],
  ["CS(=O)(=O)O[C@H]1C(=O)N(c2cc3c4ccccc4ccc3c3ccccc23)[C@@H]1c1ccccn1", "0.612 µM"],
  ["N.N.N.N.N.N#Cc1nn[n-]n1.[Cl-].[Co+3]", "> 100 µM"],
  ["COc1ccc2nc3cc(Cl)ccc3c(NCCNCC(O)CO)c2c1 (centres undefined)", "1.1 µM"],
  ["CCSc1nc(NC(C)c2ccccc2)c2cnn(CO)c2n1 (centres undefined)", "> 100 µM"],
  ["Cc1cc(O[C@@H]2O[C@@H](C)[C@H](O)[C@@H](O)[C@H]2O)c2c3c(c(O[C@@H]4O[C@@H](C)[C@H](O)[C@@H](O)[C@H]4O)cc2c1)C(=O)c1c(O)cccc1C3=O", "> 30 µM"],
  ["C[C@@H]1CC[C@H]2[C@@H](C)C(OC/C=C/COC3O[C@@H]4O[C@@]5(C)CC[C@H]6[C@H](C)CC[C@@H]([C@H]3C)[C@@]46OO5)O[C@@H]3O[C@@]4(C)CC[C@@H]1[C@]32OO4 (some centres undefined)", "0.0791 µM"]
]}

GI50 in this record for COc1ccc(CN2C(=O)/C(=C\C(=O)c3ccc(OCCN4CCCC4)cc3)c3ccccc32)cc1 : 20.8 µM

GI50 in this record for [N-]=[N+]=NCCCn1c2c(c3ccc([N+](=O)[O-])cc3c1=O)C(=O)c1cc(I)ccc1-2 : 1.82 µM

GI50 in this record for Cc1cc(I)cc(CNCCN2CCOCC2)c1O : 29.4 µM

GI50 in this record for O=C(O)c1ccc(NCc2nc3ccccc3[nH]2)cc1 : > 100 µM

GI50 in this record for Clc1ccc(-c2nc3c(-c4ccccc4)nc(-c4ccccc4)cn3c2-c2ccc(Cl)cc2)cc1 : > 100 µM

GI50 in this record for Fc1ccc(Nc2ncc(-c3cc(F)c(Cl)cc3Cl)s2)cc1Cl : 9.43 µM

GI50 in this record for COc1ccc(C2CC(c3ccccc3)=NN2C(=O)c2cc(OC)c(OC)c(OC)c2)cc1O (centres undefined) : 0.397 µM

GI50 in this record for COc1cc(N2CCN(C(C)C)CC2)ccc1Nc1nc(Nc2ccc(F)cc2C(=O)NCC(O)CO)c2cc[nH]c2n1 (centres undefined) : 4.09 µM
